Experiment: NCI Yeast Anticancer Drug Screen. Data for the sgs1 mgt1 strain (AID 161);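 note: 0% = growth of cultures given vehicle only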
Conditions: S. cerevisiae sgs1 mgt1 strain, at 50.0 µM, hits give high values
About 79,000 compounds went through this panel and 15% of them were active in at least one assay; those are over-represented in the sample as a whole.
reported_endpoint: growth inhibition (%)

compound=COc1cc(N=Nc2c(Cl)cc([N+](=O)[O-])cc2Cl)c(OC)cc1N=Nc1ccc(N)nc1N reported_endpoint="growth inhibition" quantitative_result=7.05
compound="COc1ccc2nc(NC(=O)C(=O)C(C)C(=O)c3ccc(Cl)cc3)sc2c1 (configuration not stated)" reported_endpoint="growth inhibition" quantitative_result=-8.65
compound=COc1cccc(-c2nc(-c3cnccn3)n(Cc3ccccc3)n2)c1 reported_endpoint="growth inhibition" quantitative_result=-59.8
compound=NC(=O)c1ccncc1 reported_endpoint="growth inhibition" quantitative_result=-13.1
compound=C#CCOc1ccc(O)c(C(=O)OCCCOC(=O)c2cc(OCC#C)ccc2O)c1 reported_endpoint="growth inhibition" quantitative_result=-3.9
compound=CCOC(=O)CNCc1cccc(Cl)c1 reported_endpoint="growth inhibition" quantitative_result=15.4
compound=O=c1nc(-c2ccco2)sc(=O)[nH]1 reported_endpoint="growth inhibition" quantitative_result=-8.35
compound=CCCCc1ccncc1 reported_endpoint="growth inhibition" quantitative_result=18.6
compound=CCCCCCCCCCCCCCCCCCNC(=O)Nc1ccc(OC)cc1OC reported_endpoint="growth inhibition" quantitative_result=-0.3
compound="CC1COC(c2cc3c(cc2Cl)OCO3)O1 (configuration not stated)" reported_endpoint="growth inhibition" quantitative_result=-20.3
compound="COC(=O)CNC(=O)C1CSC(C)(C)N1 (configuration not stated)" reported_endpoint="growth inhibition" quantitative_result=-15.7
compound="O=C(/C=C/c1ccc(O)c(O)c1)OC1C[C@@](O)(C(=O)O)C[C@@H](O)[C@H]1OC(=O)/C=C/c1ccc(O)c(O)c1 (some centres not stated)" reported_endpoint="growth inhibition" quantitative_result=21.1
compound=Nc1nnc2nc(CC(=O)c3ccccn3)/c(=C/C(=O)c3ccccn3)n12 reported_endpoint="growth inhibition" quantitative_result=-2.8
compound=COC(=O)/C(=C/Cl)NC(C)=O reported_endpoint="growth inhibition" quantitative_result=-4.8
compound="C/C(=N/NC(=O)C(N)=O)C(CC(C(=O)Nc1ccccc1C)/C(C)=N\\NC(=O)C(N)=O)C(=O)Nc1ccccc1C (configuration not stated)" reported_endpoint="growth inhibition" quantitative_result=-8.1
compound="COc1ccc2c(c1)C(=O)CC(C(N)=O)C2 (configuration not stated)" reported_endpoint="growth inhibition" quantitative_result=-29.9
compound=N/N=C(\N)SCc1ccc(N=C=S)cc1 reported_endpoint="growth inhibition" quantitative_result=17.4
compound=COc1cccc2c(NCCCCCO[N+](=O)[O-])cc[n+](C)c12 reported_endpoint="growth inhibition" quantitative_result=9.85
compound="COc1c2c(cc3c1-c1c(cc4c(c1OC)OCO4)CC(C)C(C)C3)OCO2 (configuration not stated)" reported_endpoint="growth inhibition" quantitative_result=21
compound=S=C=NCCCCCCCCCCCCN=C=S reported_endpoint="growth inhibition" quantitative_result=94.2
compound="CC(CC(C)(C)C)C(=O)O (configuration not stated)" reported_endpoint="growth inhibition" quantitative_result=2.55
compound="CCOC(=O)CCC1(C)OCC(O)CO1 (configuration not stated) (tested in a mixture with another compound)" reported_endpoint="growth inhibition" quantitative_result=-5.6
compound="CCCNCCCCC(C)Nc1cc(OC)cc2cccnc12 (configuration not stated)" reported_endpoint="growth inhibition" quantitative_result=-15.6
compound=CC(C)(C)c1cc(Br)c(O)c(CN(Cc2cc(C(C)(C)C)cc(Br)c2O)C2CCCCC2)c1 reported_endpoint="growth inhibition" quantitative_result=-34.2
compound="CC(=O)NC(C=O)C(O)C(O)C(O)C(=O)O (configuration not stated) (tested in a mixture with another compound)" reported_endpoint="growth inhibition" quantitative_result=-22.2
compound=Cc1ccc(Br)c2c1CCC2=O reported_endpoint="growth inhibition" quantitative_result=0.9
compound="CCOC1CCC(C(C)=O)C(C#N)(C#N)C1(C#N)C#N (configuration not stated)" reported_endpoint="growth inhibition" quantitative_result=-21.6
compound=N=C(/C(=C/c1cccc2ccccc12)c1ccccc1)c1ccccc1 reported_endpoint="growth inhibition" quantitative_result=14.1
compound=Cc1ccc[n+]([O-])c1Cl reported_endpoint="growth inhibition" quantitative_result=-8.55
compound=O=S(=O)(Nc1cccc(C2=NCCN2)c1)c1cccc2c(S(=O)(=O)Nc3cccc(C4=NCCN4)c3)cccc12 reported_endpoint="growth inhibition" quantitative_result=-30.1
compound=CC(C)(C)N[P+](Cc1ccccc1)(NC(C)(C)C)c1ccccc1 reported_endpoint="growth inhibition" quantitative_result=62
compound=CC(C)(C#N)OC(=O)c1cc([N+](=O)[O-])cc([N+](=O)[O-])c1 reported_endpoint="growth inhibition" quantitative_result=13.1
compound="O=C1CCCCC1C(O)(C(F)(F)F)C(F)(F)Cl (configuration not stated)" reported_endpoint="growth inhibition" quantitative_result=-36.7
compound=C(=C(/C=C/C(=C/c1ccccc1)c1ccccc1)c1ccccc1)\c1ccccc1 reported_endpoint="growth inhibition" quantitative_result=-11.7
compound=CCOC(=O)c1c(/N=C/c2cc(Br)ccc2O)sc2c1CCCC2 reported_endpoint="growth inhibition" quantitative_result=0.4
compound=CCCCn1c2nc3ccccc3c-2nc2cc(OC)c(OC)cc21 reported_endpoint="growth inhibition" quantitative_result=14.6
compound=O=C(O)c1oc(C(=O)O)c(C(=O)O)c1C(=O)O reported_endpoint="growth inhibition" quantitative_result=-18.6
compound=CCc1c(CO)cnc(C)c1OP(=O)(O)O reported_endpoint="growth inhibition" quantitative_result=-18.1
compound=O=C(COc1cccc(Cl)c1)Nc1ccc(Cl)cc1 reported_endpoint="growth inhibition" quantitative_result=-18.9
compound=CCC1=CC(=O)C(CC)=CC1=O reported_endpoint="growth inhibition" quantitative_result=-2.15
compound=O=C1NC(=O)c2c(Br)c(Br)c(Br)c(Br)c21 reported_endpoint="growth inhibition" quantitative_result=2.35
compound="OC(c1ccccc1)(c1ccc(-c2ccccc2)cc1)c1cccc2ccccc12 (configuration not stated)" reported_endpoint="growth inhibition" quantitative_result=21.8
compound=Cc1c([N+](=O)[O-])cc2c(c1[N+](=O)[O-])C(=O)c1ccccc1-2 reported_endpoint="growth inhibition" quantitative_result=8.5
compound=N#Cc1ccc(NN=NCCOCCCl)cc1 reported_endpoint="growth inhibition" quantitative_result=17.9
compound=O=C(O)c1ccc(CSc2ccccc2C(=O)O)cc1 reported_endpoint="growth inhibition" quantitative_result=-6.95
compound=O=[N+]([O-])c1ccccc1S(=O)(=O)N1CCCc2cc(Cl)ccc21 reported_endpoint="growth inhibition" quantitative_result=9.45
compound=CNc1ccccc1C(=O)N/N=C/C1CCCCC1 reported_endpoint="growth inhibition" quantitative_result=16.6
